# systemTested: cGMP PDE V (Homo sapiens, UniProt O76074)
# protocolDescription: cyclic nucleotide PDE V activity, PDE SPA assay kit, inhibition study
# Assay type: biochemical
# Protocol: The cyclic nucleotide PDE V activity was determined using PDE SPA assay kit (Amersham Pharmacia biotech, UK). Each reaction mixture (100 μL total volume) consisted of the column elute containing PDE V (10 μL), [^3H]-cGMP (5 μCi/mL), bovine serum albumin (0.5 mg/mL), and MgCl2 (5 mM) in Tris-HCl buffer (15 mM, pH 7.5). […] The reaction tube was then settled for 20 min and was counted on the scintillation counter (Tri-carb 1500, Packard, USA). […]
observationType: IC50 (nM)
Give just the numeric value; nM need not be written.

What value of measured IC50 is listed for CCCc1cn(C)c2c(=O)[nH]c(-c3cc(S(=O)(=O)N4CCN(CCCl)CC4)ccc3OCC)nc12 ?
2.06

* * *

observationType: melting point

CCCOc1ccc(S(=O)(=O)N2CCN(Cc3nnn[nH]3)CC2)cc1-c1nc2c(CCC)cn(C)c2c(=O)[nH]1 [Example 117]: 150 °C (dec.)
CCCc1cn(C)c2c(=O)[nH]c(-c3cc(S(=O)(=O)N4CCC(CC(=O)O)CC4)ccc3OCC)nc12 [Example 106]: 138.5 to 139.5 °C
CCCc1cn(C)c2c(=O)[nH]c(-c3cc(S(=O)(=O)N4CCN(Cc5nnn[nH]5)CC4)ccc3OCC)nc12 [Example 116]: 188 °C (dec.)
CCCOc1ccc(S(=O)(=O)N2CCC(C(=O)O)CC2)cc1-c1nc2c(CCC)cn(C)c2c(=O)[nH]1 [Example 105]: 155 to 155.5 °C

Please turn your attention to the following entry.
What value of measured melting point is listed for CCCc1cn(C)c2c(=O)[nH]c(-c3cc(S(=O)(=O)N4CCN(CCCl)CC4)ccc3OCC)nc12 [Example 33] ?
226 °C (dec.)

* * *

# systemTested: cGMP PDE V (Homo sapiens, UniProt O76074)
# protocolDescription: cyclic nucleotide PDE V activity, PDE SPA assay kit, inhibition study
# Format: biochemical
# experimentalSetup: in vitro inhibition of cGMP PDE V; [3H]-cGMP, 30° C., 30 min; read-out: IC50
# Method: The cyclic nucleotide PDE V activity was determined using PDE SPA assay kit (Amersham Pharmacia biotech, UK). Each reaction mixture (100 μL total volume) consisted of the column elute containing PDE V (10 μL), [^3H]-cGMP (5 μCi/mL), bovine serum albumin (0.5 mg/mL), and MgCl2 (5 mM) in Tris-HCl buffer (15 mM, pH 7.5). […] The reaction tube was then settled for 20 min and was counted on the scintillation counter (Tri-carb 1500, Packard, USA). […]
Structures can show the parent of a compound that is named as a salt.
observationType: IC50 (nM)
Give just the numeric value; nM need not be written.

Study these solved cases before continuing.
CCCc1cn(C)c2c(=O)[nH]c(-c3cc(S(=O)(=O)N4CCN(CCCCl)CC4)ccc3OCC)nc12 [Example 35, hydrochloride]: 0.49
CCCOc1ccc(S(=O)(=O)N2CCN(Cc3nnn[nH]3)CC2)cc1-c1nc2c(CCC)cn(C)c2c(=O)[nH]1: 0.7
CCCc1cn(C)c2c(=O)[nH]c(-c3cc(S(=O)(=O)N4CCN(CCCF)CC4)ccc3OCC)nc12: 0.64
CCCc1cn(C)c2c(=O)[nH]c(-c3cc(S(=O)(=O)N4CCC(CC(=O)O)CC4)ccc3OCC)nc12: 0.27

What value of measured IC50 is listed for CCCc1cn(C)c2c(=O)[nH]c(-c3cc(S(=O)(=O)N4CCN(Cc5nnn[nH]5)CC4)ccc3OCC)nc12 ?
0.28

What value of measured IC50 is listed for CCCOc1ccc(S(=O)(=O)N2CCC(C(=O)O)CC2)cc1-c1nc2c(CCC)cn(C)c2c(=O)[nH]1 ?
0.71
